# Study Target: TLR5 of the cell-based reporter assays
# Experiment Notes: cell-based or functional assay
Listed here: items and their measured Relative EC50 vs 502, Signaling (LecZ).
# output: bare number, implied unit fold vs 502

Consider the following illustrative entries.
[[record]]
binder = "CBLB502 variant 461 (ligand) MRGSHHHHHHGMASMTGGQQMGRDLYDLVPRGSAKDPMAQVINTNSLSLLTQNNLNKSQSSLSSAIERLSSGLRINSAKDDAAGQAIANRFTSNIKGLTQASRNANDGISIAQTTEGALNEINNNLQRVRELSVQATNGTNSDSDLKSIQDEIQQRLEEIDRVSNQTQFNGVKVLSQDNQMKIQVGANDGETITIDLQKIDVKSLGLDGFNVNSPGISGGGGGILDSMGTLINEDAAAAKKSTANPLASIDSALSKVDAVRSSLGAIQNRFDSAITNLGNTVTNLNSAR"
readout_value = 105

[[record]]
binder = "CBLB502 variant 467 (ligand) MRGSHHHHHHGMASMTGGQQMGRDLYDLVPRGSAKDPMAQVINTNSLSLLTQNNLNKSQSSLSSAIERLSSGLRINSAKDDAAGQAIANRFTSNIKGLTQASRNANDGISIAQTTEGALNEINNNLQRVRELSVQATNGTNSDSDLKSIQDEIQQRLEEIDRVSNQTQFNGVKVLSQDNQMKIQVGANDGETITIDLQKIDVKSLGLDGFNVNSPGISGGGGGILDSMGTLINEDAAAAKKSTANPLASIDSALSKVDAVRSSLGAIQNRFDSAITNLGNTVTNLNSARSRIEDA"
readout_value = 57


Turning now to a further record.
Input line: Dear colleague, I am looking for the recorded Relative EC50 vs 502, Signaling (LecZ) of the following binder: CBLB502 variant 485D (ligand) MSGLRINSAKDDAAGQAIANRFTSNIKGLTQASRNANDGISIAQTTEGALNEINNNLQRVRELSVQATNGTNSDSDLKSIQDEIQQRLEEIDRVSNQTQFNGVKVLSQDNQMKIQVGANDGETITIDLQKIDVKSLGLDGFNVNSPGSTANPLASIDSALSKVDAVRSSLGAIDSAITALGNTVTNLNSARSRIEDADYATEVSNMSKAQILQQAGLVPRGSHHHHHHG
Output line: 44
